system: Saccharomyces cerevisiae; test: transcriptional activation domain activity (GFP:mCherry ratio, weighted mean of sorted bins, harmonized to initial dataset scale) (arbitrary fluorescence ratio units); higher = stronger transcriptional activation; details: beta-estradiol 1 µM; induction time 4 h
For each of the sequences below, state its transcriptional activation domain activity.
Give bare numbers.

Use these answered entries as a reference point.
{"record.sequence": "MCFEFHPFSTSMFYLLSILFLDLSFWLSFYFFMSIVHSVALEFLFVFSLNFFV", "target.under.test": "Saccharomyces cerevisiae", "endpoint.value": 42600}
{"record.sequence": "HSGVLRDVHVVFQDRSFCARLAEQIGRRLRMIYSNWRETCCMEMLITLSLRLF", "target.under.test": "Saccharomyces cerevisiae", "endpoint.value": 73200}
{"record.sequence": "LNLGWRLMHFKVHFARIGVIVHGPQYGELTDWDCSSAHRGDILGFPKAQLLFE", "target.under.test": "Saccharomyces cerevisiae", "endpoint.value": 25100}

# per-item lookup of transcriptional activation domain activity; items listed below
1. PFFRVHHLYLPSLLQVVNLAILTSHALFNFIPHFYIVCIIVFWEGLLGGLVYV
2. TQATIVGDFFVCLMDVAGHDLAILLINWRAQTGTWLIFDSLEPLMWPHRITLV
3. PSPPKCQVPTLYAVIFRILAYLRLLDAFLFHVYILLTLHELWLIIWIPHHHQS
4. LYLRLLVGYLFMILVLLCSHNMMIFLLRSLHHLLTFLTCPLHFFLLLLLLMIT
5. RRVLVLVMEELGYRTDHAFRIAHRLDRLYQMALTRFLTLTAGVIDLMERIRMS

result:
[60500, 40300, 41400, 39000, 58400]

###

Exercise: for every item that follows, state its recorded transcriptional activation domain activity.
system: Saccharomyces cerevisiae; assay: transcriptional activation domain activity (GFP:mCherry ratio, weighted mean of sorted bins, harmonized to initial dataset scale) (arbitrary fluorescence ratio units); higher = stronger transcriptional activation; details: beta-estradiol 1 µM; induction time 4 h
Numbers only.

The following sequences have reported results that may help.
{"record.sequence": "VFLNGILFLGSILFYQVVLLRLNWYLLHILAYTIAFAYNAFWLYPVYCLSFLL", "endpoint.value": 33000}
{"record.sequence": "HHTHHSSSTDWSRAFRKWSVRLLLAIAFPTTYLLGAAMPPKIILMLYPRYSPP", "endpoint.value": 39100}
{"record.sequence": "EEEEQAKTSPAKSESKKEKKDKKKKRSADEIESGPEGTPKVAKKIKADSGAAV", "endpoint.value": 42700}
{"record.sequence": "MGSCNLPFGHISLARGTLVLIRGWSFFLASQPPYGFIRWILFRSSFYFLCSWR", "endpoint.value": 55900}
{"record.sequence": "MKIVWFSGPKVCTLFIFLLFCFLLSCCSAFLVSFFCWFLSCWLFLLAFGLLFF", "endpoint.value": 49400}
{"record.sequence": "TIVLEELRRASYWGRPSLERSWLLLDMTIKSFTGFIRLLDGDLARTICLFYLV", "endpoint.value": 76100}
{"record.sequence": "APPSSKPSPPPTSAASPAAPRAASPRPRAASSAGCRPRRGATRCCSRARASRS", "endpoint.value": 39400}
{"record.sequence": "AFLVGGGSAFWVLGYGLFYWASRLSLDSFTSVMLYLGYLLLLVLLVFLVTGTI", "endpoint.value": 42700}
{"record.sequence": "MCGRLISLLVVLLLVKFRNSSLCGILDVFLFFFRRTPFVRMGFYFMIFLLLTI", "endpoint.value": 65500}
{"record.sequence": "FFLFLFFPFSFSFLFFSFFHFLPMLAHCYNGVTISVSLWFPLILASLFRPFLL", "endpoint.value": 64300}

I have 2 sequences here; please give me transcriptional activation domain activity for each one.
1. EELWTDVDLYNAQFFFIKLLLHFNDPIYGPNTHELLIVMLGQKGGLYPLWQLL
2. MDKIRKGKVVVVGCGGVGSWAAVMLVRSCVQHFVVYLVCSSIYIIISGVSKIR

result:
1: 59700; 2: 58900
